# SYSTEM UNDER TEST: T1, AIEKLVEGKSQIQ (not fully specified)
# T1 construct: member of the group m41; the text speaks of glycine substitution, the sheet prints alanine
# T1 peptide: AIEKLVEGKSQIQ
# ASSAY OVERVIEW: ELISA, immobilized peptide AIEKLVEGKSQIQ
# From the text: FIG. 20 depicts the value detected by ELISA, i.e., OD₄₅₀ absorbance. […] This experiment is used to determine the precise amino acid epitopes that different monoclonal antibodies bind to, and the relative importance of each amino acid to the binding antibody.
No end group written: not given here.
PROPERTY NAME: OD450 absorbance
Give bare numbers.

Consider the worked cases shown below.
For reference, reported OD450 absorbance for MM05 (antibody, IgG1, V domains shown) VH: QVQLQQPGAELVRPGASVKLSCEASGYTFTSYWMNWVKQRPGQGLEWIGMIDPSDSETHYNQMFKDKATLTVDKSSSTAYMQLSSLTSEDSAVYYCARYLGGKEGSFDYWGQGTTLTVSS VL: DIVMSQSPSSLAVSAGEKVTMSCKSSQSLLNSRTRKNYLAWYQQKPGQSPKLLIYWASTRESGVPDRFTGSGSGTDFTLTISSVQAEDLAVYYCKQSYSLPWTFGGGTKLEIKR stands at 0.638

# OD450 absorbance (binder: MM02 (antibody, IgG2b, V domains shown) VH: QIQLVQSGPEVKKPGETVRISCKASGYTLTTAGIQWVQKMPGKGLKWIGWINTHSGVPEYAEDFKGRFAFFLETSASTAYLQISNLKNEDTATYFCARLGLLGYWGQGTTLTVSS VL: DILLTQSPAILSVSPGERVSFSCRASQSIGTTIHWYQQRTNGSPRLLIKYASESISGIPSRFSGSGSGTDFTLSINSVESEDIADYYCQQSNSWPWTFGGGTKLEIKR ) is 0.45

Record summary for MM14 (antibody, IgG2b, V domains shown) VH: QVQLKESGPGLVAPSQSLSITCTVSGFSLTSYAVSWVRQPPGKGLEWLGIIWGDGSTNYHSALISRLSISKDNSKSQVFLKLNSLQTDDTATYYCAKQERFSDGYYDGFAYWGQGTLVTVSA VL: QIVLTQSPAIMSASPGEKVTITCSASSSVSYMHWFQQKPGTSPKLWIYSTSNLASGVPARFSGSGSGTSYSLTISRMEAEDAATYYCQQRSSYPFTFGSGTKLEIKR : reported OD450 absorbance = 0.813

Next up:
OD450 absorbance reading for MM07 (antibody, V domains shown, The VH and VL begin with what look like leader peptides (MDWLW..., MVSSAQ...)) VH: QIQLVQSGPELKKPGETVRISCKASGYTLTTAGMQWVQKIPGKGLKWIGWINTHSGVAEFAEDFKGRFAFSLETSANTAYLQIRNLKNEDTATYFCARLGLLGYWGQGTTLTVSS VL: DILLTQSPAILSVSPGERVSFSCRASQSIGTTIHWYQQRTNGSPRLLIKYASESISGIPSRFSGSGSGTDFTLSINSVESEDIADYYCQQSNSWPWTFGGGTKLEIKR : 0.919
